procedureSummary: Pharmacokinetic study of six aconitum alkaloids in rat plasma after oral Fu Zi extracts (UPLC-MS/MS)
Type: in vivo, Sprague Dawley rats
conditionDetails: both sexes, Sprague Dawley, in vivo; SD rat plasma, oral Fu Zi extracts 0.5 g/kg, mean ± SD, n = 8; read-out: AUC(0–48h)
measureName: AUC(0-t) (ng·h/mL)
Response body: numeric value in ng·h/mL, unit text excluded.

molecule	observedValue
COC[C@@]12CC[C@H](OC)[C@]34C(C([C@H](OC)[C@H]13)[C@]1(OC(C)=O)[C@H]3[C@@H](OC(=O)c5ccccc5)[C@](O)(C[C@H]34)[C@@H](OC)[C@@H]1O)N(C)C2	62.9
CCN1CC2(COC)C(O)CC(OC)C34C5CC6(O)C(OC)C(O)C(O)(C5C6OC(=O)c5ccccc5)C(C(OC)C23)C14 (stereo not drawn)	16.2

Turning now to a further molecule:
// "CCN1C[C@]2(COC)[C@H](O)C[C@H](OC)[C@@]34[C@@H]5C[C@@]6(O)[C@H](OC(=O)c7ccccc7)[C@@H]5[C@@](OC(C)=O)([C@@H]([C@H](OC)[C@H]23)[C@@H]14)[C@@H](O)[C@@H]6OC" : AUC(0-t) value = 13.5
